test: Oral bioavailability in human; format: ADME, organism-based; details: in vivo
MEASURED PROPERTY: bioavailability (%)

>>> quantitative_readout("COc1ccc(-n2nc(C(N)=O)c3c2C(=O)N(c2ccc(N4CCCCC4=O)cc2)CC3)cc1")
50

====

tested on: BCRP; assay: in vitro; settings: human, Caco-2, with Ko134 11 uM
MEASURED PROPERTY: inhibition at 5 µM (%)

>>> quantitative_readout("O=C1CN(/N=C/c2ccc([N+](=O)[O-])o2)C(=O)N1 [NITROFURANTOIN]")
78

====

system: P-glycoprotein (human); assay: Efflux ratio of apparent permeability from basolateral to apical side over apical to basolateral side in pig LLC-PK1 cells expressing human P-glycoprotein at 5 uM by liquid scintillation counting; format: ADME, cell-based, Sus scrofa
MEASURED PROPERTY: efflux ratio at 5 µM

>>> result("C[C@H]1O[C@@H](O[C@H]2[C@@H](O)C[C@H](O[C@H]3[C@@H](O)C[C@H](O[C@H]4CC[C@@]5(C)[C@H](CC[C@@H]6[C@@H]5C[C@@H](O)[C@]5(C)[C@@H](C7=CC(=O)OC7)CC[C@]65O)C4)O[C@@H]3C)O[C@@H]2C)C[C@H](O)[C@@H]1O")
"> 7"
